test: Phase I trial, combination with cisplatin: pharmacokinetics; format: in vivo, human; conditions: both sexes, human, in vivo, intravenous; combination with CIS; read-out: Terminal elimination half-life (converted)

# smiles.structure, half-life
data = [
    ("CNCc1ccc(-c2cc(-c3nc(-c4ccc(S(=O)(=O)C(C)C)cc4)cnc3N)on2)cc1", "~16 h"),
]

----------
Test: Phase I trial, monotherapy and carboplatin combination: pharmacokinetics
Assay type: in vivo, human
Conditions: human, plasma, intravenous; monotherapy and combination with carboplatin; read-out: Terminal elimination half-life (t1/2) (converted)
Excerpt: Pts with advanced solid tumors enrolled in 2 sequential parts.
measure.name: half-life

# compound, measure.name, readout.value
measured = [
    ("CNCc1ccc(-c2cc(-c3nc(-c4ccc(S(=O)(=O)C(C)C)cc4)cnc3N)on2)cc1 [Compound A-2]", "half-life", "~16 h"),
]
